Molecular target: UniProt:O75762
Experiment: hTRPA1 CHO Ca2+ FLIPR Tetra assay, block of cinnamaldehyde induced calcium influx
Assay type: cell-based
Conditions: read-out: hTRPA1 IC50 (10 min); CHO cells expressing TRPA1; compounds incubated 10 minutes at room temperature before cinnamaldehyde agonist; Hill coefficient fixed to 1.5
PROPERTY: pIC50
pIC50 here: minus log base 10 of the concentration, concentration in moles per litre.

Use the examples below as a reference point.
Cn1cnc2ncn(Cc3nc([C@H]4[C@@H]5C=C(c6ccc(F)cc6F)C[C@@H]54)no3)c(=O)c21 [Example Compound 269] : 8.16
Cn1cnc2ncn(Cc3nc([C@@H]4CC[C@@H](c5ccc(F)cc5)C4)no3)c(=O)c21 [Example Compound 172] : 7.58
Cn1cnc2ncn(Cc3nc([C@H]4C[C@H](Oc5cccc(C#N)c5)C4)no3)c(=O)c21 [Example Compound 178] : 7.09
Cn1cnc2ncn(Cc3nc([C@@H]4[C@H]5C=C(c6ccncc6)C[C@H]54)no3)c(=O)c21 [Example Compound 127] : 6.89
Cn1cnc2ncn(Cc3nc([C@H]4[C@@H]5CN(c6ccnc(Cl)c6)C[C@@H]54)no3)c(=O)c21 [Example Compound 146] : 6.34
Cn1cnc2ncn(Cc3nc([C@H]4C[C@H](c5ccc(F)c(Cl)c5)C4)no3)c(=O)c21 [Example Compound 220] : 7.26

Query molecule follows.
Consider O=c1c2cccnc2ncn1Cc1nc([C@@H]2[C@H]3C=C(c4cccc(Cl)c4)C[C@H]32)no1 [Example Compound 181] . Its measured pIC50 is 7.66

* * *

Documented IC50 across a set of molecules
Molecular target: UniProt O75762
Test: hTRPA1 CHO Ca2+ FLIPR Tetra assay, block of cinnamaldehyde induced calcium influx
Assay type: cell-based
Settings: read-out: hTRPA1 IC50 (10 min); CHO cells expressing TRPA1; compounds incubated 10 minutes at room temperature before cinnamaldehyde agonist; Hill coefficient fixed to 1.5
Only the number, expressed in nM, is required.

Known IC50 results, listed for orientation:
Cn1cnc2ncn(Cc3nc([C@H]4[C@@H]5CN(c6cc(Cl)cc(C#N)c6)C[C@@H]54)no3)c(=O)c21 : 37.1
Cn1cnc2ncn(Cc3nc([C@H]4[C@@H]5CN(c6cc(F)ccn6)C[C@@H]54)no3)c(=O)c21 : 194
Cn1cnc2ncn(Cc3nc([C@H]4[C@@H]5C=C(c6ccc(Cl)cn6)C[C@@H]54)no3)c(=O)c21 : 142
Cn1cc(-c2cc(Cl)cc(N3C[C@@H]4[C@H](C3)[C@H]4c3noc(Cn4cnc5ncn(C)c5c4=O)n3)c2)cn1 : 71.3
Cn1cnc2ncn(Cc3nc([C@@H]4[C@H]5C=C(c6ccc(F)cn6)C[C@H]54)no3)c(=O)c21 : 64
Cn1cnc2ncn(Cc3nc([C@H]4[C@@H]5C=C(c6cccc(Cl)c6)C[C@@H]54)no3)c(=O)c21 : 8.83
Cn1cnc2ncn(Cc3nc([C@H]4[C@@H]5C=C(c6cc(F)c(F)c(F)c6)C[C@@H]54)no3)c(=O)c21 : 14.9
Cc1cncc2ncn(Cc3nc([C@H]4[C@@H]5CN(c6ccccc6)C[C@@H]54)no3)c(=O)c12 : 14.6

Entry O=c1c2cccnc2ncn1Cc1nc([C@H]2[C@@H]3CN(c4ccc(Cl)cn4)C[C@@H]32)no1 ; IC50 = 40

# IC50 of Cn1cnc2ncn(Cc3nc([C@H]4[C@@H]5CN(c6ccc(C#N)cc6)C[C@@H]54)no3)c(=O)c21 = 27.4

* * *

Some molecules, each annotated with its measured pIC50.
Target: UniProtKB O75762
Test: hTRPA1 CHO Ca2+ FLIPR Tetra assay, block of cinnamaldehyde induced calcium influx
Assay type: cell-based
Conditions: read-out: hTRPA1 IC50 (90 min); CHO cells expressing TRPA1; compounds incubated 90 minutes at room temperature before cinnamaldehyde agonist; Hill coefficient fixed to 1.5
Value format note: pIC50 is -log10 of concentration (mol/L); just state the number.

Completed entries (count: 3):
COc1ccc(C2=C[C@@H]3[C@H](C2)[C@H]3c2noc(Cn3cnc4ncn(C)c4c3=O)n2)cc1 : 7.82
Cn1cnc2ncn(Cc3nc([C@@H]4[C@H]5C=C(c6cccc(C(F)F)c6)C[C@H]54)no3)c(=O)c21 : 7.43
Cn1cnc2ncn(Cc3nc([C@H]4[C@@H]5CN(c6cc(F)ccc6F)C[C@@H]54)no3)c(=O)c21 : 8.20

Cn1cnc2ncn(Cc3nc([C@H]4[C@@H]5CN(c6cc(F)ccn6)C[C@@H]54)no3)c(=O)c21 yielded pIC50 of 7.37

So, Cn1cnc2ncn(Cc3nc([C@H]4[C@@H]5CN(c6cncc(C(F)(F)F)c6)C[C@@H]54)no3)c(=O)c21 ? Its pIC50 was 6.32

For this molecule ( Cn1cnc2ncn(Cc3nc([C@H]4C[C@H](Oc5ccc(Cl)cc5)C4)no3)c(=O)c21 ), measured pIC50 is 7.89

Just so you know, measured pIC50 for Cn1cnc2ncn(Cc3nc([C@H]4[C@@H]5C=C(c6cc(F)c(F)c(F)c6)C[C@@H]54)no3)c(=O)c21 came out at 8.70

* * *

Target: human TRPA1 channel (Homo sapiens (Human))
Test: hTRPA1 CHO Ca2+ FLIPR Tetra assay, block of cinnamaldehyde induced calcium influx
Format: cell-based
Conditions: read-out: hTRPA1 IC50 (90 min); CHO cells expressing TRPA1; compounds incubated 90 minutes at room temperature before cinnamaldehyde agonist; Hill coefficient fixed to 1.5
PROPERTY: IC50 (nM)
Form entry: value (nM) — number only.

Entry Cn1cnc2ncn(Cc3nc([C@H]4[C@@H]5CN(c6cccc(-c7ncco7)c6)C[C@@H]54)no3)c(=O)c21 [Example Compound 190] ; IC50 = 72

* * *

# IC50 values compiled below
Target: UniProt:O75762
Assay: hTRPA1 CHO Ca2+ FLIPR Tetra assay, block of cinnamaldehyde induced calcium influx
Assay type: cell-based
Conditions: read-out: hTRPA1 IC50 (90 min); CHO cells expressing TRPA1; compounds incubated 90 minutes at room temperature before cinnamaldehyde agonist; Hill coefficient fixed to 1.5
Report as a plain number; the unit µM is understood.

Worked cases, answers included:
Cn1c(NCCO)nc2ncn(Cc3nc([C@H]4[C@@H]5C=C(c6ccccc6)C[C@@H]54)no3)c(=O)c21 : 0.068
O=c1c2cccnc2ncn1Cc1nc([C@H]2C[C@H](Oc3cccc(F)c3)C2)no1 : 0.14
Cn1cnc2ncn(Cc3nc([C@H]4[C@@H]5C=C(c6ccc(Cl)cn6)C[C@@H]54)no3)c(=O)c21 : 0.13

Would you kindly look at the next entry?
The recorded IC50 with UniProt:O75762 for Cn1cnc2ncn(Cc3nc([C@H]4[C@@H]5CN(c6cccc(Cl)c6F)C[C@@H]54)no3)c(=O)c21 was 0.0044

* * *

Biological target: human TRPA1 channel (Homo sapiens (Human))
Test: hTRPA1 CHO Ca2+ FLIPR Tetra assay, block of cinnamaldehyde induced calcium influx
Type: cell-based
Conditions: read-out: hTRPA1 IC50 (10 min); CHO cells expressing TRPA1; compounds incubated 10 minutes at room temperature before cinnamaldehyde agonist; Hill coefficient fixed to 1.5
Values of IC50 strictly less than 40 nM map to label 1, and values of at least 40 nM map to label 0.

The following compounds have reported results that may help.
Cn1cnc2ncn(Cc3nc([C@H]4[C@@H]5CN(c6ccc7c(c6)CCCC7)C[C@@H]54)no3)c(=O)c21 : label 0
Nc1ccc2c(=O)n(Cc3nc([C@H]4[C@@H]5CN(c6cccc(F)c6)C[C@@H]54)no3)cnc2n1 : label 1
Cn1cnc2ncn(Cc3nc([C@H]4C[C@H](Oc5cccc(Cl)c5)C4)no3)c(=O)c21 : label 1
Cn1cnc2ncn(Cc3nc([C@H]4[C@@H]5CN(c6ccccc6F)C[C@@H]54)no3)c(=O)c21 : label 0

Is the reported IC50 for Cn1cnc2ncn(Cc3nc([C@H]4CC[C@H](c5ccc(Cl)cc5)C4)no3)c(=O)c21 strictly below 40 nM?
label 1

Bench note: check whether Cn1c(NCCO)nc2ncn(Cc3nc([C@H]4[C@@H]5C=C(c6ccccc6)C[C@@H]54)no3)c(=O)c21 shows IC50 below 40 nM
label 0

# check: IC50 < 40 nM for O=c1c2cccnc2ncn1Cc1nc([C@H]2[C@@H]3CN(c4cccc(Cl)c4)C[C@@H]32)no1
label 1

* * *

Target: human TRPA1 channel (Homo sapiens (Human), UniProt O75762)
Sequence (O75762 whole entry): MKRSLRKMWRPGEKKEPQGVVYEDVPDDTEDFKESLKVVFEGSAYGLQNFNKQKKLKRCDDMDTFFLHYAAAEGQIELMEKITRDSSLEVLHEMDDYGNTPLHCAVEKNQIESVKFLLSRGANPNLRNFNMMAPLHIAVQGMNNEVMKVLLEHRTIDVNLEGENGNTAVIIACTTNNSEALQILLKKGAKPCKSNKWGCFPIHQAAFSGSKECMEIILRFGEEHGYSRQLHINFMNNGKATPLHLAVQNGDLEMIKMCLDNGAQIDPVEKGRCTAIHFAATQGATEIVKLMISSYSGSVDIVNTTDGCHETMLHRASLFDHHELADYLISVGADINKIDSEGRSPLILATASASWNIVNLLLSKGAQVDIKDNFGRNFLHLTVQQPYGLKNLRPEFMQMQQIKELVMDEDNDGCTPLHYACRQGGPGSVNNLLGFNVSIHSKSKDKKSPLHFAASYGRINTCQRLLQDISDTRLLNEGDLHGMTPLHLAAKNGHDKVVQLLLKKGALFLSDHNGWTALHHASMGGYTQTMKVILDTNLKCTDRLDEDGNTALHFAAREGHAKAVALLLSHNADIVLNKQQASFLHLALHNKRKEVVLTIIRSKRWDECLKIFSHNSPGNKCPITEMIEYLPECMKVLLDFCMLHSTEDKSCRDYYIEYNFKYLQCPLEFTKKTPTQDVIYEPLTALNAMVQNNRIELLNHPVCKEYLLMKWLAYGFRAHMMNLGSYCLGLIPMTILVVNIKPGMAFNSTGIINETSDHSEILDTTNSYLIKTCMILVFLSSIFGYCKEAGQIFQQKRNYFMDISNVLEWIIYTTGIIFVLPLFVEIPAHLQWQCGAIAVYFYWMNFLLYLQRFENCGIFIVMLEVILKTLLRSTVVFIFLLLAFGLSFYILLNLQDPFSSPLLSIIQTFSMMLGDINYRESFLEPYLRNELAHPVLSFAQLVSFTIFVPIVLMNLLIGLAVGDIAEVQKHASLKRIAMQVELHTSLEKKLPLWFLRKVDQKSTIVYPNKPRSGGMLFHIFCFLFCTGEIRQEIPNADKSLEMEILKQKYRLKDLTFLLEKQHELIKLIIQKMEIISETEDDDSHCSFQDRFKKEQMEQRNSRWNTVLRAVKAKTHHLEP
Test: hTRPA1 CHO Ca2+ FLIPR Tetra assay, block of cinnamaldehyde induced calcium influx
Format: cell-based
Conditions: read-out: hTRPA1 IC50 (90 min); CHO cells expressing TRPA1; compounds incubated 90 minutes at room temperature before cinnamaldehyde agonist; Hill coefficient fixed to 1.5
PROPERTY: pIC50
pIC50 field: float, defined as -log10 of concentration (mol/L).

The cases that follow already have their pIC50 on record.
Cn1c(=O)ccc2ncn(Cc3nc([C@H]4[C@@H]5CN(c6cc(Cl)ccn6)C[C@@H]54)no3)c(=O)c21 [Example Compound 174] : 7.30
Cn1cnc2nnn(Cc3nc([C@H]4[C@@H]5C=C(c6ccccc6)C[C@@H]54)no3)c(=O)c21 [Example Compound 259] : 7.80
Cn1cnc2ncn(Cc3nc([C@H]4[C@@H]5CN(c6ccc(Cl)cc6F)C[C@@H]54)no3)c(=O)c21 [Example Compound 276] : 8.13
Cn1cnc2ncn(Cc3nc([C@H]4[C@@H]5CN(c6ccncc6F)C[C@@H]54)no3)c(=O)c21 [Example Compound 131] : 6.96
CC(=O)Nc1nc2ncn(Cc3nc([C@H]4[C@@H]5C=C(c6ccccc6)C[C@@H]54)no3)c(=O)c2n1C [Example Compound 241] : 7.74

Entry under test: Cn1cnc2ncn(Cc3nc([C@H]4[C@@H]5C=C(c6cccc(C(F)F)c6)C[C@@H]54)no3)c(=O)c21 [Example Compound 103] . Its pIC50 was 7.59

pIC50 measured on Cn1cnc2ncn(Cc3nc([C@@H]4[C@H]5C=C(c6ccncc6)C[C@H]54)no3)c(=O)c21 [Example Compound 127] = 7.07

pIC50 recorded for this molecule, Cn1cnc2ncn(Cc3nc([C@H]4C[C@H](C(F)(F)c5cccc(F)c5)C4)no3)c(=O)c21 (stereo in doubt) [Example Compound 248] , is 8.26

The reported pIC50 of the molecule Cc1cccc(N2C[C@@H]3[C@H](C2)[C@H]3c2noc(Cn3cnc4ncn(C)c4c3=O)n2)c1 [Example Compound 224] was 7.72

Quick note, pIC50 for Cn1cnc2ncn(Cc3nc([C@H]4[C@@H]5C=C(c6ccc(F)cc6)C[C@@H]54)no3)c(=O)c21 [Example Compound 125] landed at 8.52

For this molecule ( Cn1cnc2ncn(Cc3nc([C@@H]4[C@H]5C=C(c6ccc(F)cc6)C[C@H]54)no3)c(=O)c21 [Example Compound 124] ), measured pIC50 is 8.12

Just so you know, measured pIC50 for Cc1cc(N)nc2ncn(Cc3nc([C@H]4[C@@H]5C=C(c6ccccc6)C[C@@H]54)no3)c(=O)c12 [Example Compound 238] came out at 8.82

Value of pIC50 reported for the molecule Cn1cnc2ncn(Cc3nc([C@@H]4[C@H]5C=C(c6cccc(-c7cnco7)c6)C[C@H]54)no3)c(=O)c21 [Example Compound 280] is 7.40

Source: patent US10711004B2
